Where do the numbers come from? From paper PMC6272428.

# assayNotes: Stability of the four compounds in rat plasma QC samples (freeze-thaw, storage at −80 °C, autosampler)
# Type: physicochemical
# appliedConditions: processed rat plasma, auto-sampler 4 °C for 24 h, middle QC concentration (3.09 × 10^2, 1.38 × 10^2, 1.43 × 10^2, 1.77 × 10^2 ng/mL for 1–4)
propertyName: Stability, Autosampler for 24 h, Accuracy (%)

>>> valuemeasured("CC1(C)[C@@H](O[C@H]2O[C@H](C(=O)O)[C@@H](O)[C@H](O)[C@H]2O[C@@H]2O[C@H](C(=O)O)[C@@H](O)[C@H](O)[C@H]2O)CC[C@]2(C)[C@H]3C(=O)C=C4[C@@H]5C[C@@](C)(C(=O)O)CC[C@]5(C)CC[C@@]4(C)[C@]3(C)CC[C@@H]12 [Compound 1, glycyrrhizinic acid]")
92.23
>>> valuemeasured("CC12CC(O)C3CC1(OC1OC(CO)C(O)C(O)C1O)C3(COC(=O)c1ccccc1)C(=O)O2 (stereo not shown) [Compound 4, albiflorin]")
91.22
>>> valuemeasured("C[C@@]12C[C@@]3(O)O[C@@H](O1)[C@]1(COC(=O)c4ccccc4)[C@H]3C[C@@]12O[C@@H]1O[C@H](CO)[C@@H](O)[C@H](O)[C@H]1O [Compound 3, paeoniflorin]")
91.28
>>> valuemeasured("O=C1C[C@@H](c2ccc(O[C@@H]3O[C@H](CO)[C@@H](O)[C@H](O)[C@H]3O)cc2)Oc2cc(O)ccc21 [Compound 2, liquiritin]")
97.49

====

# assayNotes: Pharmacokinetics of four compounds in plasma after oral administration of GSBXD and its plus-minus prescriptions in normal rats (LC-MS/MS)
# Format: in vivo
# appliedConditions: Wistar, rat, 15 mL/kg, group GSBXD-GS (GSBXD minus Gansui), 15 mL/kg oral, normal rats, n = 6, mean ± S.D.
# Experimental: Plasma samples (200 μL) and IS solution (50 μL, 1215 ng/mL for diphenhydramine, 476 ng/mL for chloromycetin) were added in an Eppendorf tube, and this mixture was extracted with methanol (550 μL) by shaking on a vortex-mixer for 2 min, and centrifuged for 10 min at 13,000 rpm. […] To determine the pharmacokinetic parameters of compounds 1–4 in different groups, concentration–time data were analyzed by DAS 3.2 software (Mathematical Pharmacology Professional Committee of China, Shanghai, China, 2011). […]
propertyName: half-life (h)

>>> valuemeasured("C[C@@]12C[C@@]3(O)O[C@@H](O1)[C@]1(COC(=O)c4ccccc4)[C@H]3C[C@@]12O[C@@H]1O[C@H](CO)[C@@H](O)[C@H](O)[C@H]1O")
7.9
>>> valuemeasured("CC1(C)[C@@H](O[C@H]2O[C@H](C(=O)O)[C@@H](O)[C@H](O)[C@H]2O[C@@H]2O[C@H](C(=O)O)[C@@H](O)[C@H](O)[C@H]2O)CC[C@]2(C)[C@H]3C(=O)C=C4[C@@H]5C[C@@](C)(C(=O)O)CC[C@]5(C)CC[C@@]4(C)[C@]3(C)CC[C@@H]12")
11.6
>>> valuemeasured("O=C1C[C@@H](c2ccc(O[C@@H]3O[C@H](CO)[C@@H](O)[C@H](O)[C@H]3O)cc2)Oc2cc(O)ccc21")
6.84
>>> valuemeasured("CC12CC(O)C3CC1(OC1OC(CO)C(O)C(O)C1O)C3(COC(=O)c1ccccc1)C(=O)O2 (stereo not shown)")
9.07

====

Examples of compounds with documented Tmax follow.
# assayNotes: Pharmacokinetics of four compounds in plasma after oral administration of GSBXD and its plus-minus prescriptions in normal rats (LC-MS/MS)
# Assay type: in vivo
# appliedConditions: Wistar, rat, group GC (extract of Gancao), oral, normal rats, n = 6, mean ± S.D.
# value in min; strip the unit string

>>> valuemeasured("CC1(C)[C@@H](O[C@H]2O[C@H](C(=O)O)[C@@H](O)[C@H](O)[C@H]2O[C@@H]2O[C@H](C(=O)O)[C@@H](O)[C@H](O)[C@H]2O)CC[C@]2(C)[C@H]3C(=O)C=C4[C@@H]5C[C@@](C)(C(=O)O)CC[C@]5(C)CC[C@@]4(C)[C@]3(C)CC[C@@H]12 [Compound 1, glycyrrhizinic acid]")
21.6

### Prompt For the compound O=C1C[C@@H](c2ccc(O[C@@H]3O[C@H](CO)[C@@H](O)[C@H](O)[C@H]3O)cc2)Oc2cc(O)ccc21 [Compound 2, liquiritin] , what Tmax is on record?
### Response 30

====

# assayNotes: Stability of the four compounds in rat plasma QC samples (freeze-thaw, storage at −80 °C, autosampler)
# Type: physicochemical
# appliedConditions: rat plasma, −80 °C for a month, low QC concentration (1.91 × 10, 4.32, 1.78 × 10, 1.11 × 10 ng/mL for 1–4)
propertyName: Stability, At −80 °C for a Month, Accuracy (%)

>>> valuemeasured("C[C@@]12C[C@@]3(O)O[C@@H](O1)[C@]1(COC(=O)c4ccccc4)[C@H]3C[C@@]12O[C@@H]1O[C@H](CO)[C@@H](O)[C@H](O)[C@H]1O [Compound 3, paeoniflorin]")
87.54
>>> valuemeasured("CC1(C)[C@@H](O[C@H]2O[C@H](C(=O)O)[C@@H](O)[C@H](O)[C@H]2O[C@@H]2O[C@H](C(=O)O)[C@@H](O)[C@H](O)[C@H]2O)CC[C@]2(C)[C@H]3C(=O)C=C4[C@@H]5C[C@@](C)(C(=O)O)CC[C@]5(C)CC[C@@]4(C)[C@]3(C)CC[C@@H]12 [Compound 1, glycyrrhizinic acid]")
89.99
>>> valuemeasured("CC12CC(O)C3CC1(OC1OC(CO)C(O)C(O)C1O)C3(COC(=O)c1ccccc1)C(=O)O2 (stereo not shown) [Compound 4, albiflorin]")
101.5
>>> valuemeasured("O=C1C[C@@H](c2ccc(O[C@@H]3O[C@H](CO)[C@@H](O)[C@H](O)[C@H]3O)cc2)Oc2cc(O)ccc21 [Compound 2, liquiritin]")
91.03

====

# assayNotes: Pharmacokinetics of four compounds in plasma after oral administration of GSBXD and its plus-minus prescriptions in normal rats (LC-MS/MS)
# Assay type: in vivo
# appliedConditions: Wistar, rat, 15 mL/kg, group GSBXD-GS (GSBXD minus Gansui), 15 mL/kg oral, normal rats, n = 6, mean ± S.D.
propertyName: Cmax (ng/mL)

>>> valuemeasured("C[C@@]12C[C@@]3(O)O[C@@H](O1)[C@]1(COC(=O)c4ccccc4)[C@H]3C[C@@]12O[C@@H]1O[C@H](CO)[C@@H](O)[C@H](O)[C@H]1O")
101

[I] O=C1C[C@@H](c2ccc(O[C@@H]3O[C@H](CO)[C@@H](O)[C@H](O)[C@H]3O)cc2)Oc2cc(O)ccc21
[II] CC12CC(O)C3CC1(OC1OC(CO)C(O)C(O)C1O)C3(COC(=O)c1ccccc1)C(=O)O2 (stereo not shown)
[III] CC1(C)[C@@H](O[C@H]2O[C@H](C(=O)O)[C@@H](O)[C@H](O)[C@H]2O[C@@H]2O[C@H](C(=O)O)[C@@H](O)[C@H](O)[C@H]2O)CC[C@]2(C)[C@H]3C(=O)C=C4[C@@H]5C[C@@](C)(C(=O)O)CC[C@]5(C)CC[C@@]4(C)[C@]3(C)CC[C@@H]12
### Prompt Please put the entries in order of rising Cmax. Please respond by ranking the labels in the order requested.
### Response I, II, III

====

# assayNotes: Pharmacokinetics of four compounds in plasma after oral administration of GSBXD and its plus-minus prescriptions in normal rats (LC-MS/MS)
# Format: in vivo
# appliedConditions: Wistar, rat, 15 mL/kg, group GSBXD-GS (GSBXD minus Gansui), 15 mL/kg oral, normal rats, n = 6, mean ± S.D.
# Method: Plasma samples (200 μL) and IS solution (50 μL, 1215 ng/mL for diphenhydramine, 476 ng/mL for chloromycetin) were added in an Eppendorf tube, and this mixture was extracted with methanol (550 μL) by shaking on a vortex-mixer for 2 min, and centrifuged for 10 min at 13,000 rpm. […] To determine the pharmacokinetic parameters of compounds 1–4 in different groups, concentration–time data were analyzed by DAS 3.2 software (Mathematical Pharmacology Professional Committee of China, Shanghai, China, 2011). […]
propertyName: Tmax (min)

[1] CC1(C)[C@@H](O[C@H]2O[C@H](C(=O)O)[C@@H](O)[C@H](O)[C@H]2O[C@@H]2O[C@H](C(=O)O)[C@@H](O)[C@H](O)[C@H]2O)CC[C@]2(C)[C@H]3C(=O)C=C4[C@@H]5C[C@@](C)(C(=O)O)CC[C@]5(C)CC[C@@]4(C)[C@]3(C)CC[C@@H]12
[2] O=C1C[C@@H](c2ccc(O[C@@H]3O[C@H](CO)[C@@H](O)[C@H](O)[C@H]3O)cc2)Oc2cc(O)ccc21
### Prompt Between 1 and 2 , whose recorded Tmax is greater? Provide the label of your selected option as the answer.
### Response 1
(1: 100 min, 2: 10.2 min)
